target.or.system: T1, human FSTL1 (construct not stated) (human, UniProt Q12841 21-308)
T1 construct: also called human FSTL1 antigen; FSTL1 (R&D Systems, Inc. Cat#1694-FN-050)
T1 sequence: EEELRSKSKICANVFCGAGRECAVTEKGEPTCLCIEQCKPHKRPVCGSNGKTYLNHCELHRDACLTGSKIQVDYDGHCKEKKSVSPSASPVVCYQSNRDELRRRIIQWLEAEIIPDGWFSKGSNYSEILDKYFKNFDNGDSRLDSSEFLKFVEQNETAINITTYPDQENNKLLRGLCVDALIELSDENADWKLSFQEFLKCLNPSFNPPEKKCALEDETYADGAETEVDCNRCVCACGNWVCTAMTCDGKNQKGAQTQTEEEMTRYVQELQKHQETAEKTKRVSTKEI
assay.notes: SPR (Biacore T-200), captured antibody, human FSTL1 10 µg/ml
# Binding amount (RU) values compiled below

binder	Binding amount (RU)
anti-FSTL1 antibody clone #8-1 (chicken-mouse chimeric antibody) (antibody, mouse IgG1, kappa, V domains shown) VH: AVTLDESGGGLQTPGGALSLVCKGSGFTFSSFNMFWVRQAPGKGLEWVAGIGKDGVPKYGAAVDGRATISKDNGQSTMRLQLNNLRAEDTGTYFCAKAAGGCSYDWCGIYAGDIDTWGHGTEVIVSS VL: ASTQPSSVSANPGEAVKITCSGGSGSYYGWYQQKSPGSAPVTVIYNNNQRPSDIPSRFSGSKSGSTATLTITGVQAEDEAVYFCGGYDSSSGHGGIFGAGTTLTVLG	11.1
anti-FSTL1 antibody clone #7-34 (chicken-mouse chimeric antibody) (antibody, mouse IgG1, kappa, V domains shown) VH: AVTLDESGGGLQTPGGGLSLVCKASGFTFSSVTMQWVRQAPGKGLEWVASICSGSSTYYGPAVKGRATISRDNGQNTVRLQLNNLRAEDTATYYCAKIVGRGRWSCTSAAYNIDAWGHGTEVIVSS VL: ASTQPSSVSANPGETVKITCSGGGNNYGWYQQKSPGSAPVTVIYYNNNRPSNIPSRFSGSTSGSTSTLTITGVQAEDEAVYYCGSYEGSTDSGIFGAGTTLTVLG	14.2
anti-FSTL1 antibody clone #5-43 (chicken-mouse chimeric antibody) (antibody, mouse IgG1, kappa, V domains shown) VH: AVTLDESGGGLQTPGGGLSLVCKGSGFTFSSFNMFWVRQAPGKGLEWVAGIGKDGGTGYGAAVDGRATISKDSGQSTLRLQLNNLRAEDTGTYYCAKAAGGCSYDWCGAYTGDIDTWGHGTEVIVSS VL: ASTQPSSVSANPGEAVKITCSGGSGSYYGWYQQKSPGSAPVTVIYNNNQRPSDIPSRFSGSKSGSTATLTITGVQAEDEAVYFCGGYDSSTGHGGIFGAGTTLTVLG	7
anti-FSTL1 antibody clone #8-4 (chicken-mouse chimeric antibody) (antibody, mouse IgG1, kappa, V domains shown) VH: AVTLDESGGGLQTPGGGLSLVCKGSGFTLSSFNMFWVRQAPGKGLEWVAGVGKDGGTAYGAAVDGRATISRDSGQSTVRLQLNNLRAEDTGTYFCAKAAGGCSYSWCGAYVGDLDAWGHGTEVIVSS VL: ASSQPSSVSANPGETVKITCSGGSGYYYGWYQQKSPGSAPVTVIYNNDNKPSDIPSRFSGSKSGSTGTLTITGVQVEDEAVYFCGGYDNSGTGIFGAGTTLTVLG	11.6
anti-FSTL1 antibody clone #8-7 (chicken-mouse chimeric antibody) (antibody, mouse IgG1, kappa, V domains shown) VH: AVTLDESGGGLQTPGGGLSLVCKGSGFTFSSFNMFWVRQAPGKGLEWVAGIGKDGVPKYGAAVDGRATISKDNGQSTLRLQLNNLRAEDTGTYFCAKAAGGCSYDWCGIYAGDIDTWGHGTEVIVSS VL: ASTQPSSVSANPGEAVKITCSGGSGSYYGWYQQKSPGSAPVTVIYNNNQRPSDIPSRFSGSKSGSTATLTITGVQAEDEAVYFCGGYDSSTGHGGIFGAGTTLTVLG	12.8
anti-FSTL1 antibody clone #5-8 (chicken-mouse chimeric antibody) (antibody, mouse IgG1, kappa, V domains shown) VH: AVTLDESGGGLQTPGGGLSLVCKGSGFTFSSFNMFWVRQAPGKGLEWVAGIGKDGVPKYGTAVDGRATISKDNGQSTMRLQLNNLRAEDTGTYFCAKAAGGCSYDWCGIYTGDIDTWGHGTEVIVSS VL: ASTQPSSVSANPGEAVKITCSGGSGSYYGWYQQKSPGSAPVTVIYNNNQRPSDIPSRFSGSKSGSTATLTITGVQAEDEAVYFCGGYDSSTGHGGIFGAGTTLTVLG	6.7
anti-FSTL1 antibody clone #6-55 (chicken-mouse chimeric antibody) (antibody, mouse IgG1, kappa, V domains shown, also called Anti-FSTL1 mAb (#6-55)) VH: AVTLDESGGGLQTPGGALSLVCKGSGFTFTSVTMQWVRQAPGKGLEWVASVCSGSSTYYAPAVKGRATISRDNGQSTVRLQLSNLRPEDTGTYYCAKIAGRARWSCTSAAYNIDAWGHGTEVIVSS VL: ASTQPSSVSAIPGETVKITCSGGGNNYGWYQQRSPGSAPVTVIYYNDNRPSNIPSRFSGSTSGSTSTLTITGVQADDEAIYYCGSWDSNTDSGIFGAGTTLTVLG	11
anti-FSTL1 antibody clone #33 (chicken-mouse chimeric antibody) (antibody, mouse IgG1, kappa, V domains shown) VH: AVTLDESGGGLQTPGGGLSLVCKASGFTFSSFNMNWVRQAPGKGLEYVAEISGTGSSTYYGSAVKGRATISRDNGQSTVRLQLNNLRAEDTATYFCARGDGAYSIDAWGHGTEVIVSS VL: ASTQPSSVSANPGETVEITCSGDSSYYGWFQQKSPGSAPVTVIYDNTNRPSDIPSRFSGSKSGSTATLTITGVRAEDEAVYYCGGYDSSTYDGIFGAGTTLTVLG	10.9
anti-FSTL1 antibody clone #5-2 (chicken-mouse chimeric antibody) (antibody, mouse IgG1, kappa, V domains shown) VH: AVTLDESGGGLQTPGGGLSLVCKGSGFTFSSFNMFWVRQAPGKGLEWVAGVGKDGGTGYGAAVDGRATISKDNGQSTLRLQLNNLRAEDTGTYYCAKAAGGCSYGWCGSYVGDIDAWGHGTEVIVSS VL: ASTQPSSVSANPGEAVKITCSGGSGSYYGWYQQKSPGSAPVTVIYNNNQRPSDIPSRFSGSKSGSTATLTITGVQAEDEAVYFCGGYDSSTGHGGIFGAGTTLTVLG	9.2
anti-FSTL1 antibody clone #13 (chicken-mouse chimeric antibody) (antibody, mouse IgG1, kappa, V domains shown) VH: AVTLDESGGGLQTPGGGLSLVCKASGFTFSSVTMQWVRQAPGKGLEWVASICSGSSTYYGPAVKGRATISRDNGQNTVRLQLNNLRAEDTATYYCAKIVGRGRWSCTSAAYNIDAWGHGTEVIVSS VL: ASTQPSSVSANPGETVKITCSGGGNNYGWYQQKSPGSAPVTVIYNNNNRPSNIPSRFSGSKSGSTNTLTITGVQAEDEAVYYCGSYDSSSDSGIFGAGTTLTVLG	8.7
anti-FSTL1 antibody clone #8-8 (chicken-mouse chimeric antibody) (antibody, mouse IgG1, kappa, V domains shown) VH: AVTLDESGGGLQTPGGALSLVCKGSGFTFSSFNMFWVRQAPGKGLEWVAGIGKDGVPKYGAAVDGRATISKDNGQSTMRLQLNNLRAEDTGTYYCAKAAGGCSYGWCGAYTGDIDTWGHGTEVIVSS VL: ASTQPSSVSANPGEAVKITCSGGSGSYYGWYQQKSPGSAPVTVIYNNNQRPSDIPSRFSGSKSGSTATLTITGVQVEDEAVYFCGGYDSSTGHGGIFGAGTTLTVLG	8
